Assay system: H1047R PIK3CA enzyme (Homo sapiens, UniProt P42336, H1047R)
Sequence (P42336 whole entry H1047R): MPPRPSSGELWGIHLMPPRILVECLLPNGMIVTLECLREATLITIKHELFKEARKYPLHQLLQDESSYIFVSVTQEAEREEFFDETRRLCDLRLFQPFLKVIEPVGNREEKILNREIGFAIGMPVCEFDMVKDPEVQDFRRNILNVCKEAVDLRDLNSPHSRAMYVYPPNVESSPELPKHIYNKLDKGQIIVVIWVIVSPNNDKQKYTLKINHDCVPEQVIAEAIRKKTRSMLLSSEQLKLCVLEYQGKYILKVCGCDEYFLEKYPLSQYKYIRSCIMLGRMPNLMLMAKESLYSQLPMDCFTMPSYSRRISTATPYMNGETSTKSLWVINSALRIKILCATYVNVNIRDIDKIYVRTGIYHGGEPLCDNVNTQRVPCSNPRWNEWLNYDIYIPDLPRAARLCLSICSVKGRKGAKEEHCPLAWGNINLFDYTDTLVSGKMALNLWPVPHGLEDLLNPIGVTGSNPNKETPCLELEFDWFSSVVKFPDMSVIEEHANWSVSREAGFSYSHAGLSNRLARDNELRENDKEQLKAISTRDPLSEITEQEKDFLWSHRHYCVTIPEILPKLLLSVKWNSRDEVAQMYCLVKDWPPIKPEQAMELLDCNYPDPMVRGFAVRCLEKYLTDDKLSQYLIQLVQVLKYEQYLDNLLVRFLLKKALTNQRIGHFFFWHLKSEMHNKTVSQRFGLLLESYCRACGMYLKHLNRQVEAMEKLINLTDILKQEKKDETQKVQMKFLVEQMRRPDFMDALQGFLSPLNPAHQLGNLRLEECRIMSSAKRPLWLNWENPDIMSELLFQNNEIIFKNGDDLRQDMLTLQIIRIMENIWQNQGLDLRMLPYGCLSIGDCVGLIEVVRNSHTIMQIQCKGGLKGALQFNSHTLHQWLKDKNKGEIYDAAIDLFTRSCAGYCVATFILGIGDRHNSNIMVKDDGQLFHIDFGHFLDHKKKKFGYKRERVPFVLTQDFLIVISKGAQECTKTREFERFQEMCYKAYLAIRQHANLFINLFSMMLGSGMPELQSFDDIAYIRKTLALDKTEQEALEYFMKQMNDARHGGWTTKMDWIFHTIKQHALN
Sequence (P27986 whole entry partner): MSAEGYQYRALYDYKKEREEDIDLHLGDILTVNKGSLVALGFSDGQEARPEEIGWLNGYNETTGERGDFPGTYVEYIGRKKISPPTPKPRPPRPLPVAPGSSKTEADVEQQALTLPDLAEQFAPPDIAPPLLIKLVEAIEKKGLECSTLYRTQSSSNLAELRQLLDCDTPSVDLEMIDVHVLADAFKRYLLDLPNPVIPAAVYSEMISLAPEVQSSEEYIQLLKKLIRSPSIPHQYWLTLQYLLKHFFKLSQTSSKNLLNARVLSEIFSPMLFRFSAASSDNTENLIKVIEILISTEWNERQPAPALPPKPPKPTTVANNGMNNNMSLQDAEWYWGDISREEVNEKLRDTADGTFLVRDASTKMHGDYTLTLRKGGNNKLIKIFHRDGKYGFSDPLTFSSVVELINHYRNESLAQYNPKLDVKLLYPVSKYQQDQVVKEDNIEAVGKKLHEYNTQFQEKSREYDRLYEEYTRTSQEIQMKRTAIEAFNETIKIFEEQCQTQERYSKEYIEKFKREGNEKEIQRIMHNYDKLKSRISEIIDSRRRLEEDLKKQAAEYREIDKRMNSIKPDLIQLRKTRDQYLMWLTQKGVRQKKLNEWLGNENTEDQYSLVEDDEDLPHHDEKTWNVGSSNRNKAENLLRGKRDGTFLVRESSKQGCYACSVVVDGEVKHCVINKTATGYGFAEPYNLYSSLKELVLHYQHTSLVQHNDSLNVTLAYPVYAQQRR
Assay: ADP-Glo Biochemical PIK3CA Kinase Assay
pIC50: −log10 of the molar value.
Listed compounds paired with reported pIC50

O=C1N[C@@H](c2cc(F)ccc2Cl)c2c(NC(=O)N3C[C@@H](O)c4c(F)cccc43)cccc21 (single isomer, unassigned) ... 5.00 to 6.00
CC(C)(O)c1cc(NC(=O)c2cc(Cl)n3ccccc23)c2c(c1)C(=O)NC2c1cc(F)ccc1C(F)F (stereo not shown) ... ≥ 7.00
N#Cc1cnn(Cc2cc(NC(=O)N3C[C@](O)(C(F)(F)F)c4cc(F)ccc43)c3c(c2)C(=O)N[C@@H]3c2cc(F)ccc2Cl)c1 (single isomer, unassigned) ... ≥ 7.00

Switching to the query record.
Measured pIC50 of O=C(Nc1cc(-c2cccc3cnccc23)cc2c1C(c1cc(F)ccc1Cl)NC2=O)c1cc(F)cc(C(F)(F)F)c1 (stereo not shown) : ≥ 7.00

Hello, the source for this data is patent US12581252B2, in case you need it.
